This collection of values is drawn from the supplement of paper PMC9112550.

tested on: Escherichia coli TOP10; assay: shrunken log2 fold change of peptide-encoding DNA abundance (4.5 h post-induction vs induction); higher = less antimicrobial activity (less host growth inhibition); details: time post-induction: 4.5 h; library: site-saturation at positions 5, 18, 19, 20;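 further: peptides expressed intracellularly from a pBAD plasmid library in pooled LB shake-flask culture, induced with 0.3% L-arabinose, DNA abundance read by NGS, three biological replicates, DESeq2 with apeglm shrinkage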
measured.parameter: shrunken log2 fold change
Answer with a number only.

Below, each entry is followed by its recorded shrunken log2 fold change result.
RRIRVRPPRLPRPRPRPFYRPRP | -0.576
RRIRTRPPRLPRPRPRPCMCPRP | -0.222
RRIRQRPPRLPRPRPRPLSPPRP | -0.109
RRIRDRPPRLPRPRPRPYDAPRP | -0.00235
RRIRPRPPRLPRPRPRPVCDPRP | 0.333
RRIRKRPPRLPRPRPRPEFQPRP | 0.0241
RRIRQRPPRLPRPRPRPAKRPRP | 0.0228
RRIRLRPPRLPRPRPRPWCPPRP | 0.0721

Record summary for `RRIRNRPPRLPRPRPRPFMGPRP` : reported shrunken log2 fold change = -0.168

Record summary for `RRIRCRPPRLPRPRPRPYWVPRP` : reported shrunken log2 fold change = -0.528

Record summary for `RRIRMRPPRLPRPRPRPWVNPRP` : reported shrunken log2 fold change = 0.0668

Record summary for `RRIRFRPPRLPRPRPRPPHHPRP` : reported shrunken log2 fold change = -0.0595

Record summary for `RRIRQRPPRLPRPRPRPHERPRP` : reported shrunken log2 fold change = 0.158

Record summary for `RRIRHRPPRLPRPRPRPIGDPRP` : reported shrunken log2 fold change = -0.00136

Record summary for `RRIRVRPPRLPRPRPRPFQGPRP` : reported shrunken log2 fold change = -0.0641

Record summary for `RRIRPRPPRLPRPRPRPGNGPRP` : reported shrunken log2 fold change = 0.349

Record summary for `RRIRPRPPRLPRPRPRPFDPPRP` : reported shrunken log2 fold change = -0.0325

Record summary for `RRIRARPPRLPRPRPRPLMMPRP` : reported shrunken log2 fold change = 0.205

Record summary for `RRIRDRPPRLPRPRPRPQTIPRP` : reported shrunken log2 fold change = -0.164

Record summary for `RRIRCRPPRLPRPRPRPDMFPRP` : reported shrunken log2 fold change = -0.148

Record summary for `RRIRNRPPRLPRPRPRPQEHPRP` : reported shrunken log2 fold change = 0.422

Record summary for `RRIRVRPPRLPRPRPRPSPCPRP` : reported shrunken log2 fold change = -0.145

Record summary for `RRIRHRPPRLPRPRPRPPYAPRP` : reported shrunken log2 fold change = -0.00375

Record summary for `RRIRSRPPRLPRPRPRPNDKPRP` : reported shrunken log2 fold change = -0.553

Record summary for `RRIRERPPRLPRPRPRPENQPRP` : reported shrunken log2 fold change = -0.174
